- Test system: Quadruplex DNA
- Protocol: Stabilization of c-kit1 G4 quadruplex d(DNA AGGGAGGGCGCTGGGAGGAGGG) DNA (unknown origin) assessed as thermal stability by measuring difference in melting temperature t1/2 by circular dichroism spectroscopy (reference value: 54 +/- 0.5 degC)
- Format: nucleic-acid assay
So basically, if ΔTm comes in under 20 °C it's T, and if it's 20 °C or more it's F.

{"Smiles String": "N=C(N)N/N=C/c1c(-c2ccccc2)nc2ccn3c(CO)c(-c4ccccc4)nc3n12", "Class Assignment": "T"}
{"Smiles String": "Clc1ccc(-c2nc3n(ccc4nc(-c5ccccc5)c(/C=N/NC5=NCCN5)n43)c2/C=N/NC2=NCCN2)cc1", "Class Assignment": "T"}
{"Smiles String": "Cc1ccc(-c2nc3ccn4c(/C=N/NC(=N)N)c(-c5ccccc5)nc4n3c2/C=N/NC(=N)N)cc1", "Class Assignment": "T"}
{"Smiles String": "Clc1ccc(-c2nc3n(ccc4nc(-c5ccc(Cl)cc5)c(/C=N/NC5=NCCN5)n43)c2/C=N/NC2=NCCN2)cc1", "Class Assignment": "T"}
{"Smiles String": "Cc1ccc(-c2nc3n(ccc4nc(-c5ccccc5)c(/C=N/NC(=N)N)n43)c2/C=N/NC(=N)N)cc1", "Class Assignment": "F"}
{"Smiles String": "Cc1ccc(-c2nc3n(ccc4nc(-c5ccc(C)cc5)c(/C=N/NC(=N)N)n43)c2C=O)cc1", "Class Assignment": "T"}

Let's switch to this molecule now.
Confirm or reject: ΔTm of N=C(N)N/N=C/c1c(-c2ccccc2)nc2n1ccc1nc(-c3ccc(Cl)cc3)c(/C=N/NC(=N)N)n12 lies strictly below 20 °C F
